tested on: HPV-Ker cells; assay: Viability test of HPV-Ker keratinocytes by real-time impedance monitoring (xCELLigence RTCA); format: cell-based, human; details: Homo sapiens, Keratinocyte; HPV-Ker cell line, 24 h of treatment, ± SD; read-out: IC50 Value 24 h
Decide using IC50 alone. Strictly below 10 µM: 1.0. Equal to or above 10 µM: 0.0.

[[record]]
molecule = "C/C=C(/C)C(=O)O[C@H]1C(C)=CC23C(=O)[C@@H](C=C(COC(C)=O)[C@@H](OC(C)=O)[C@]12O)[C@H]1[C@@H](C[C@H]3C)[C@@]1(C)COC(C)=O"
group = 1.0

[[record]]
molecule = "C/C=C(/C)C(=O)O[C@H]1C(C)=CC23C(=O)[C@@H](C=C(COC(C)=O)[C@@H](O)[C@]12O)[C@H]1[C@@H](C[C@H]3C)[C@@]1(C)COC(C)=O [Compound 6, 17-acetoxyingenol 3-angelate 20-acetate]"
group = 1.0

[[record]]
molecule = "C/C=C(/C)C(=O)O[C@H]1C(C)=CC23C(=O)[C@@H](C=C(C)[C@@H](O)[C@]12O)[C@H]1[C@@H](C[C@H]3C)[C@@]1(C)COC(C)=O [Compound 8, 17-acetoxy-20-deoxyingenol 3-angelate]"
group = 1.0

[[record]]
molecule = "C/C=C(/C)C(=O)O[C@H]1C(C)=C[C@]23C(=O)[C@@H](C=C(CO)[C@@H](O)[C@]12O)[C@H]1[C@@H](C[C@H]3C)C1(C)C [Ingenol mebutate, reference compound]"
group = 1.0

[[record]]
molecule = "C/C=C(\\C)C(=O)O[C@@H]1/C(C)=C/[C@@]23O[C@@]2(C[C@H](C)[C@@H]3OC(C)=O)C(=O)[C@H](C)[C@H](OC(C)=O)[C@@H]2[C@H]([C@@H]1O)C2(C)C [Compound 1, Ingol 3,12-diacetate 7-tigliate]"
group = 0.0

[[record]]
molecule = "C/C=C(/C)C(=O)O[C@@H]1C(C)=C[C@@H]2C(=O)C3(C=C(C)[C@H](O)[C@@]13O)[C@H](C)C[C@@H]1[C@H]2[C@]1(C)COC(C)=O [Compound 9, 17-acetoxy-20-deoxyingenol 5-angelate]"
group = 0.0

[[record]]
molecule = "C/C=C(\\C)C(=O)O[C@@H]1/C(C)=C/[C@@]23O[C@@]2(C[C@H](C)[C@@H]3OC(C)=O)C(=O)[C@H](C)[C@H](OC(C)=O)[C@@H]2[C@H]([C@@H]1OC)C2(C)C"
group = 0.0


====

test system: HPV-Ker cells; experiment: Viability test of HPV-Ker keratinocytes by real-time impedance monitoring (xCELLigence RTCA); format: cell-based, human; details: Homo sapiens, Keratinocyte; HPV-Ker cell line, 48 h of treatment, ± SD; read-out: IC50 Value 48 h
pIC50: −log10 of the molar value.
Rule: pIC50 of 6 or more gives Satisfied; anything lower gives Not satisfied.

[[record]]
compound = "C/C=C(/C)C(=O)O[C@@H]1C(C)=C[C@@H]2C(=O)C3(C=C(C)[C@H](O)[C@@]13O)[C@H](C)C[C@@H]1[C@H]2[C@]1(C)COC(C)=O [Compound 9, 17-acetoxy-20-deoxyingenol 5-angelate]"
group = "Not satisfied"

[[record]]
compound = "C/C=C(\\C)C(=O)O[C@@H]1/C(C)=C/[C@@]23O[C@@]2(C[C@H](C)[C@@H]3OC(C)=O)C(=O)[C@H](C)[C@H](OC(C)=O)[C@@H]2[C@H]([C@@H]1O)C2(C)C [Compound 1, Ingol 3,12-diacetate 7-tigliate]"
group = "Not satisfied"

[[record]]
compound = "C/C=C(\\C)C(=O)O[C@@H]1/C(C)=C/[C@@]23O[C@@]2(C[C@H](C)[C@@H]3OC(C)=O)C(=O)[C@H](C)[C@H](OC(C)=O)[C@@H]2[C@H]([C@@H]1OC)C2(C)C"
group = "Not satisfied"

[[record]]
compound = "C/C=C(/C)C(=O)O[C@H]1C(C)=CC23C(=O)[C@@H](C=C(COC(C)=O)[C@@H](O)[C@]12O)[C@H]1[C@@H](C[C@H]3C)[C@@]1(C)COC(C)=O [Compound 6, 17-acetoxyingenol 3-angelate 20-acetate]"
group = "Satisfied"

